- System: Human RSV-A (“Long” strain)
- ASSAY_PROTOCOL: RSV-A assay (CPE, ATPlite readout in Hep-2 cells)
- Format: cell-based
- SETUP_CONDITIONS: human respiratory syncytial virus, 120 h; Hep-2 cells, MOI 0.1, 5-day incubation, ATPlite; read-out: Human RSV-A (“Long” strain) EC50
pEC50: −log10 of the molar value.
Entries annotated with measured pEC50

Sample answers from the record:
MOLECULE	STUDY_SYSTEM	READOUT_VALUE
C[C@](O)(CNC(=O)c1cc(OC2CC2)c2ncccc2c1)c1cc2c(c(-c3ccc(F)cc3)n1)OC[C@@]2(N)C(F)(F)F	Human RSV-A (“Long” strain)	> 6.70
COC(=O)N[C@@]1(C(F)(F)F)COc2c1cc([C@@](O)(CNC(=O)c1ccc(OC3CC3)c(OC)c1)C(F)(F)F)nc2-c1ccc(F)cc1	Human RSV-A (“Long” strain)	< 6.70

Which pEC50 value belongs to N[C@@]1(C(F)(F)F)COc2c1cc([C@@](O)(CNC(=O)c1cc(OC3CC3)c3[nH]c(=O)ccc3c1)C1CC1)nc2-c1ccc(F)cc1 [Example 59c] ?
< 6.70
